Reference for the values: patent US20110143948A1

List of ncRNA array expression, patient 6 values.
# Test system: ncRNAs (SEQ ID NO 28-89)
# TEST_DESCRIPTION: ncRNA arrays of melanocytes, keratinocytes, normal skin, melanoma cell lines and patient samples
# Parameters: species or system human
# CONDITION_SET: melanoma patient 6 sample compared to normal skin
No unit in the answer, only the number.

Solved entries (count: 5):
SUBSTANCE: SEQ ID NO 61 (CATACATTGCCCTCACTAATCAATGGACATTTCAGCATTTCATTACTAATTTTGAGAGAA; listed as DNA, chemistry not given here; listed as Homo sapiens)
ncRNA array expression, patient 6: 0.992
//
SUBSTANCE: SEQ ID NO 79 (GTGTGTACTGATGTCAAAGACCAAATGGATGCCCCTGTGGCCAACAGTACCTTGTTAAAC; listed as DNA, chemistry not given here; listed as Homo sapiens)
ncRNA array expression, patient 6: 1.201
//
SUBSTANCE: SEQ ID NO 60 (ACTAACAGCACTGGAGGGTGTAGTGTTTCCTACTTTATGGATGAGTGTACTGTGGGCTTC; listed as DNA, chemistry not given here; listed as Homo sapiens)
ncRNA array expression, patient 6: −1.218
//
SUBSTANCE: SEQ ID NO 34 (TTTTCTCTGCTTATTACCCTCCCTGTTTCCTCCTGGGCTGCCAACAACATATTATATTAC; listed as DNA, chemistry not given here; listed as Homo sapiens)
ncRNA array expression, patient 6: 2.606
//
SUBSTANCE: SEQ ID NO 52 (TTTTCTTAGTCTTTTTACTTTTTCCATTATATTCTTTGATATATTTGAGAAAATGGCTTG; listed as DNA, chemistry not given here; listed as Homo sapiens)
ncRNA array expression, patient 6: 0.7809

input: Please provide the recorded ncRNA array expression, patient 6 for SEQ ID NO 45 (ATTTAGAGAACATTTAAATCTGTAAGGAAGAAAATAATAACGACTCACAATTACATCATT; listed as DNA, chemistry not given here; listed as Homo sapiens) , tested on ncRNAs (SEQ ID NO 28-89).
output: −0.7528

input: Please provide the recorded ncRNA array expression, patient 6 for SEQ ID NO 83 (TCAGTTTGATGATTGGGCTAGGGAATGAAGCTTTGCCACTTAGGAGATAAACCCCATAAC; listed as DNA, chemistry not given here; listed as Homo sapiens) , tested on ncRNAs (SEQ ID NO 28-89).
output: −0.6047

input: Please provide the recorded ncRNA array expression, patient 6 for SEQ ID NO 56 (AAAAAATGAGGCAATCTCATCCCGAAACTATTTAAAACTACTCTCCTCTCTCTTGATAAA; listed as DNA, chemistry not given here; listed as Homo sapiens) , tested on ncRNAs (SEQ ID NO 28-89).
output: −1.129

input: Please provide the recorded ncRNA array expression, patient 6 for SEQ ID NO 88 (CTGTTGCTTATTCTGGGAGCCCAATCCTAGGCTGAGGGAGGTGGGCGCGGGGCTGTTTAA; listed as DNA, chemistry not given here; listed as Homo sapiens) , tested on ncRNAs (SEQ ID NO 28-89).
output: −0.882

input: Please provide the recorded ncRNA array expression, patient 6 for SEQ ID NO 85 (TGAGGGGAGAGGGGATGGGAAACATTAGGGCTGGGTTCATGTAAAGGGACCAGCATTGTG; listed as DNA, chemistry not given here; listed as Homo sapiens) , tested on ncRNAs (SEQ ID NO 28-89).
output: −1.878
